All values here come from ChEMBL document CHEMBL5113544.

- protocol-details: Cytotoxicity against human U-87 MG cells incubated for 22 hrs by cell counting kit analysis
- Format: functional, cell-based, U-87MG ATCC
measured-parameter: pIC50
Numbers only, as −log10 of the molar value.

Memo: OB(O)c1ccc(-c2nc3ccccc3s2)cc1 , reported pIC50: 3.95

* * *

- protocol-details: Cytotoxicity against HEK293 cells incubated for 22 hrs by cell counting kit analysis
- Type: toxicity, cell-based
- condition-details: human
measured-parameter: IC50 at 22 h (µM)
Give bare numbers, in µM.

IC50 at 22 h measured on OB(O)c1ccc(-c2nc3ccccc3s2)cc1 = 265

* * *

- protocol-details: Cytotoxicity against HEK293 cells assessed as cell survival at upto 100 uM incubated for 22 hrs by cell counting kit analysis relative to control
- Type: toxicity, cell-based
- condition-details: human, read-out: Survival
measured-parameter: viability at 22 h, up to 100 µM

get_value(item= OB(O)c1ccc(-c2nc3ccccc3s2)cc1 , readout=viability at 22 h, up to 100 µM) returns > 95%

* * *

- protocol-details: Octanol/water partition coefficient, logP of compound at 10 mg incubated for 24 hrs by ICP-MS analysis
- Assay type: physicochemical
measured-parameter: logP at 24 h
Answers are plain numbers.

Item: OB(O)c1ccc(-c2nc3ccccc3s2)cc1 | logP at 24 h: 0.32

* * *

- protocol-details: Effective permeability of the compound in pH 7.4 at 25 uM incubated for 4 hrs by PAMPA-BBB assay
- Type: ADME
- condition-details: read-out: Peff
measured-parameter: Papp at 4 h, 25 µM (×10⁻⁶ cm/s)
Give bare numbers, in ×10⁻⁶ cm/s.

Record OB(O)c1ccc(-c2nc3ccccc3s2)cc1 , field Papp at 4 h, 25 µM: 59.8
